Assign apparent KD of MS2 coat protein to each entry below.
- Tested on: MS2 coat protein
- assay_protocol: apparent KD of MS2 coat protein; higher = weaker reporter binding
- settings: Eterna round: R107; input ligand: arginine 13.2 mM
Numbers only, in nM.

Please review the entries below; each comes with its answer.
{"columns": ["chain_sequence", "apparent KD of MS2 coat protein (nM)"],
 "data": [
  ["CAUGUGAAAAUAAGAAGAAGAAGAAUAAAUCGAGGACCGGUACGGCCGCCACUCGUCGAAUCACAUGAGGAUCACCCAUGUAGCC [Tryptofun]", 26.3],
  ["AGGUGACAUGAGGAUCACCCAUGUGGCUUACGAGGACCGGUACGGCCGCCACUCGGUGUGACCUCCGCAUUCACAUAAUAAUCUU [Rilala]", 37.4],
  ["AACAUGAGGAUCACCCAUGUAUUGGGUGAUACCAGCCUGAAUAAGGGCCCUUGGCAGCACCGCGCUAACUUUAUGUCUGCGAACC [Rebiercete]", 511],
  ["UUGUUGUUUGGAAGGAGCGUGUAUGAUUAAGAACAUGAGGAUCACCCAUGUUGUAGGAUAGCACAGGUAGGUCGCCGGGUGGUGG [11.W]", 18.8],
  ["AUACAUGAGGAUCACCCAUGUUAUAGUGAAGGAGCGACAUUUAGGUCAGGUAGGUCGCACUAUUGAAUUAUUAUUCUCAGUUCUU [JR_ExcArginiA_Sub019]", 14.2]
]}

Q) For the sequence shown here, GUGUACAUGAGGAUCACCCAUGUCGAGUUACGAGGACCGGUACGGCCGCCACUCGGCGGCUCGACACGGAUAGCGGUGCGUUGCU [Exclusion - Tryptophan A] , give the reported apparent KD of MS2 coat protein.
A) 18.2

----------
- System: K4 kissing-loop RNA reporter;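 also: bound reporter read as fluorescence of individual clusters on recovered sequencing chips by microscopy, with normalized cluster intensities fitted with a binding model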
- assay_protocol: apparent KD of K4 kissing-loop reporter; higher = weaker reporter binding
- settings: Eterna round: R107; input ligand: arginine 13.2 mM
Rule: apparent KD of K4 kissing-loop reporter of 200 nM or more gives 1.0; anything lower gives 0.0.

{"columns": ["chain_sequence", "class"],
 "data": [
  ["GUUUGCCGGUCCCGGAGUGAUGUUCCGGAUACCAGCAACUUCCUUUGCCCUUGGCAGCCGUAGCUAUACCGGGUGGCAGCUUCAG [Anresoenus]", 0.0],
  ["UGGAGUUGACGAAAAGUCAACUCCUGGGAAGGAGCGGACGAAAGUCCAGGUAGGUCGCUCACUACCAGUGAUGUUGGUACUUAAA", 1.0],
  ["CUGACUAAAUAGUCAGUGAUGUUGACUGGACGAGGACCGGUACGGCCGCCACUCGAGAGUGGUGUAAUAUAUGUCAUAUAGUCAA [Tryp A SS t3]", 1.0],
  ["UGACUGGAUGGAAGGAGCGCUAAACUCCUAGUGAUGUUAGGGAAAUGAGGCAAAGCCUCGAGGCAGGUAGGUCGCCAUCUAGUCU [FiskerMod 18 - Jieux - Same State - Arginine B]", 0.0],
  ["GUAGCACUUGAUAGUGAUGUUAUCAAGGGCAAGGAUAUCAUCUCAAUGAGAAGGUGUCCUUGAUAACUGCUACGGGAAUAUCCCA [Omei KL FMN A Exc D v6]", 0.0]
]}

Q) Textbook exercise: given the entry UCUGUUGUAUAUGAUACCAGCAGUGAGAGAUGAGAAGUAUAGUGAUGUUAUAUGAGAGAAUGCCCUUGGCAGCGUGUGCGUGUGG [SSTheophylB.aC] , state whether its apparent KD of K4 kissing-loop reporter is greater than or equal to 200 nM.
A) 0.0

Q) Textbook exercise: given the entry AAGUCAUAGGCAGGAUAUGCUUAGUAUUAAGGCCAUAUAUACGUAUAGAGUGAUGUUUUGUACCAGGCAGAAGGGCUACAUCAGU [FMN B Excl V6 (+A)] , state whether its apparent KD of K4 kissing-loop reporter is greater than or equal to 200 nM.
A) 1.0

Q) Textbook exercise: given the entry GUAUCGCUAGGAGGAUAUUUCAUAUAAUAUAUAAAUGGAUAUACGGAGUGAUGUUCCGAUUUACGGAAAGAAGGCCUAGUGAUAC [FMN B 18] , state whether its apparent KD of K4 kissing-loop reporter is greater than or equal to 200 nM.
A) 0.0

Q) Textbook exercise: given the entry GGACGCCGGUCGGCCGCCACUCACAGCAGUGAUGUUGCUGAGAAUGUAGCGGAGUGAUGUUCCGAGAGGACCGGGACUGCAGUUU [Same State Tryptophan B GF 9] , state whether its apparent KD of K4 kissing-loop reporter is greater than or equal to 200 nM.
A) 0.0
